- experimental_target: UniProt:P28335
- Sequence (P28335 whole entry): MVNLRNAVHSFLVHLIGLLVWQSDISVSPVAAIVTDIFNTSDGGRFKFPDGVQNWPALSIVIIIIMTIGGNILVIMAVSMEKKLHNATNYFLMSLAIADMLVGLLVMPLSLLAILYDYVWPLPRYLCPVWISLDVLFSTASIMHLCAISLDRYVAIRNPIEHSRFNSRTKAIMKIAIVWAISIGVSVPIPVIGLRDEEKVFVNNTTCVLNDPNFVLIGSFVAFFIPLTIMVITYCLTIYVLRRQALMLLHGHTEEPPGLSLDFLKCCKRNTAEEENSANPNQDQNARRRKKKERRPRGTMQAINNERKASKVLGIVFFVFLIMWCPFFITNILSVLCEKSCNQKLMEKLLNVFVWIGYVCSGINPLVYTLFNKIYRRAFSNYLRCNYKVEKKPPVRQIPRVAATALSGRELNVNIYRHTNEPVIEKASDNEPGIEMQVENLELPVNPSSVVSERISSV
pKi: −log10 of the molar value.

{"columns": ["compound", "pKi"],
 "data": [
  ["c1ccc(CCN2[C@@H]3CC[C@H]2CC(c2c(-c4ccccc4)[nH]c4ccccc24)C3)cc1 (stereo partly drawn)", 6.40],
  ["Fc1ccc(-c2[nH]c3cc(F)ccc3c2C2CCCNC2)cc1 (stereo not drawn)", 7.80],
  ["F[C@@H]1CCNC[C@H]1c1c(-c2ccccc2)[nH]c2c(Cl)cccc12", 6.81]
]}

====

- experimental_target: D(2) dopamine receptor (Homo sapiens, UniProt P14416)
- Sequence (P14416 whole entry): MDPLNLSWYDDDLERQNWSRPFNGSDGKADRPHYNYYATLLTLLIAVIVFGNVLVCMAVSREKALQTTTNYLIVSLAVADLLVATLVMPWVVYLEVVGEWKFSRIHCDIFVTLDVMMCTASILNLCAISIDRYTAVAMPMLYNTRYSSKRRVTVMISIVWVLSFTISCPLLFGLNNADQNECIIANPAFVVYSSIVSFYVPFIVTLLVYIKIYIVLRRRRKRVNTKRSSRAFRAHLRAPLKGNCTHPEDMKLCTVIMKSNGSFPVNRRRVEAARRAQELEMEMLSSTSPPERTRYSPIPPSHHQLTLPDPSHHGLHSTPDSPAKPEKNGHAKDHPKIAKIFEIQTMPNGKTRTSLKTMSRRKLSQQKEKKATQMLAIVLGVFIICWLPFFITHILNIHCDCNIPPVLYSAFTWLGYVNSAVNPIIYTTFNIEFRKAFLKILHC
- assay: Ability to displace [3H]spiperone binding to CHO cells stably expressing dopamine receptor D2
pKi: −log10 of the molar value.

{"columns": ["smiles_string", "pKi"],
 "data": [
  ["Fc1ccc2c([C@@H]3CNCC[C@H]3F)c(C3CCCCC3)[nH]c2c1", "< 5.80"],
  ["F[C@@H]1CCNC[C@H]1c1c(-c2ccccc2)[nH]c2c(Cl)cccc12", "< 5.80"],
  ["Fc1ccc2c([C@@H]3CNCC[C@H]3F)c(-c3ccoc3)[nH]c2c1", "< 5.80"],
  ["F[C@H]1CCNC[C@@H]1c1c(-c2ccccc2)[nH]c2ccccc12", "< 5.77"],
  ["Fc1cccc2c([C@@H]3CNCC[C@H]3F)c(-c3ccccc3)[nH]c12", "< 5.80"],
  ["F[C@@H]1CCNC[C@H]1c1c(-c2ccccc2)[nH]c2ccccc12", "< 5.77"],
  ["O[C@@H]1CCNC[C@H]1c1c(-c2ccccc2)[nH]c2ccccc12", "< 5.80"],
  ["Fc1ccc2[nH]c(-c3ccccc3)c([C@@H]3CNCC[C@H]3F)c2c1", "< 5.80"],
  ["F[C@@H]1CCNC[C@H]1c1c(-c2ccccc2)[nH]c2ccc(Cl)cc12", "< 5.80"]
]}
